assay: Clinical study, steady state PK (Cycle 1 Day 15) after daily oral tablets of example 1; format: in vivo, human; settings: human, in vivo, 200 mg qd (N = 7), geometric mean (CV %)
ASSAY ENDPOINT: AUC (ng·h/mL)
State the answer as a number, implicitly in ng·h/mL.

Query :: If you can, please state the reported AUC value of Cc1cc(C(=O)Nc2nc3cccc(Cl)c3n2[C@@H]2CCCCN(C(=O)/C=C/CN(C)C)C2)ccn1 .
Result :: 13500

###

test: Clinical study, steady state PK (Cycle 1 Day 15) after daily oral tablets of example 1; assay type: in vivo, human; settings: human, in vivo, 225 mg qd (N = 7), geometric mean (CV %)
ASSAY ENDPOINT: AUC

Query :: If you can, please state the reported AUC value of Cc1cc(C(=O)Nc2nc3cccc(Cl)c3n2[C@@H]2CCCCN(C(=O)/C=C/CN(C)C)C2)ccn1 .
Result :: 16900 ng·h/mL

Data credit: patent US20180153899A1
